Attribution: PubChem BioAssay AID1919017

system: SW1271 complex spheroids with HUVEC/MSC, growth, % test/control; assay: Anticancer human tumor SW1271 cell line growth inhibition [AhR]; conditions: second compound 3.16 µM; first compound 10 µM; stronger effect = lower value;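 note: spheroids exposed to agents for 7 days before readout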

COMPOUND	viability, T/C
COc1ccc([C@@H](O)c2cc(-c3ncnc4cc(N5CCOCC5)ccc34)c(F)cc2Cl)nn1 + Cc1ccccc1N=Nc1ccc(NC(=O)c2ccnn2C)c(C)c1	36.8%
CC1COCCN1c1cc(C2(S(C)(=N)=O)CC2)nc(-c2ccnc3[nH]ccc23)n1 (stereo unspecified) + Cc1cncc(-c2nc(NCCc3c[nH]c4ccccc34)c3ncn(C(C)C)c3n2)c1	59.3%
Nc1ccn(C2OC(CO)C(O)C2(F)F)c(=O)n1 (stereo unspecified) + Cc1ccccc1N=Nc1ccc(NC(=O)c2ccnn2C)c(C)c1	48.5%
Nc1ccn(C2OC(CO)C(O)C2(F)F)c(=O)n1 (stereo unspecified) + CC(CO)NC(=O)c1cc(-c2ccc(Cl)cc2)nn(-c2cnn(C)c2)c1=O	42.4%
COc1cccc2c1C(=O)c1c(O)c3c(c(O)c1C2=O)CC(O)(C(=O)CO)CC3OC1CC(N)C(O)C(C)O1 (stereo unspecified) + Cc1ccccc1N=Nc1ccc(NC(=O)c2ccnn2C)c(C)c1	3.41%
O=C(C=Cc1cccc(S(=O)(=O)Nc2ccccc2)c1)NO + CC(CO)NC(=O)c1cc(-c2ccc(Cl)cc2)nn(-c2cnn(C)c2)c1=O	10.7%

====

system: SW1271 complex spheroids with HUVEC/MSC, growth, % test/control; test: Anticancer human tumor SW1271 cell line growth inhibition [AhR]; settings: second compound 10 µM; first compound 0.316 µM; stronger effect = lower value;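 note: spheroids exposed to agents for 7 days before readout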
ATTRIBUTE_MEASURED: viability, T/C (%)

MOLECULE	ATTRIBUTE_MEASURED	UNIT_ABBREV	REPORTED_RESULT
COc1cc(Nc2ncc3c(n2)-c2ccc(Cl)cc2C(c2c(F)cccc2OC)=NC3)ccc1C(=O)O + CC(CO)NC(=O)c1cc(-c2ccc(Cl)cc2)nn(-c2cnn(C)c2)c1=O	viability, T/C	%	70.2
COc1ccc([C@@H](O)c2cc(-c3ncnc4cc(N5CCOCC5)ccc34)c(F)cc2Cl)nn1 + CC(CO)NC(=O)c1cc(-c2ccc(Cl)cc2)nn(-c2cnn(C)c2)c1=O	viability, T/C	%	59.8
O=C(c1cc(Cc2n[nH]c(=O)c3ccccc23)ccc1F)N1CCN(C(=O)C2CC2)CC1 + CC(CO)NC(=O)c1cc(-c2ccc(Cl)cc2)nn(-c2cnn(C)c2)c1=O	viability, T/C	%	76.2
COc1cc(Nc2ncc3c(n2)-c2ccc(Cl)cc2C(c2c(F)cccc2OC)=NC3)ccc1C(=O)O + Cc1ccccc1N=Nc1ccc(NC(=O)c2ccnn2C)c(C)c1	viability, T/C	%	65.7
Nc1ccccc1NC(=O)c1ccc(CNC(=O)OCc2cccnc2)cc1 + Cc1ccccc1N=Nc1ccc(NC(=O)c2ccnn2C)c(C)c1	viability, T/C	%	86.6
O=C(C=Cc1cccc(S(=O)(=O)Nc2ccccc2)c1)NO + Cc1cncc(-c2nc(NCCc3c[nH]c4ccccc34)c3ncn(C(C)C)c3n2)c1	viability, T/C	%	53.1

====

system: SW1271 complex spheroids with HUVEC/MSC, growth, % test/control; assay: Anticancer human tumor SW1271 cell line growth inhibition [AhR]; conditions: curve of first compound; second compound 10 µM;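 note: spheroids exposed to agents for 7 days before readout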
pIC50: −log10 of the molar value.
Measured pIC50 of individual entries

MOLECULE	EXPERIMENTAL_SYSTEM	VALUE_RELATION_SIGN	pIC50
CCc1c2c(nc3ccc(O)cc13)-c1cc3c(c(=O)n1C2)COC(=O)[C@]3(O)CC + Cc1cncc(-c2nc(NCCc3c[nH]c4ccccc34)c3ncn(C(C)C)c3n2)c1	SW1271 complex spheroids with HUVEC/MSC, growth, % test/control	=	8.74
NS(=O)(=O)OCC1CC(n2ccc3c(NC4CCc5ccccc54)ncnc32)CC1O (stereo not drawn) + Cc1ccccc1N=Nc1ccc(NC(=O)c2ccnn2C)c(C)c1	SW1271 complex spheroids with HUVEC/MSC, growth, % test/control	<	5.00
Nc1ncn(C2CC(O)C(CO)O2)c(=O)n1 (stereo not drawn) + Cc1cncc(-c2nc(NCCc3c[nH]c4ccccc34)c3ncn(C(C)C)c3n2)c1	SW1271 complex spheroids with HUVEC/MSC, growth, % test/control	=	6.51
